# System: LNCaP
# procedure-text: Cytotoxicity against human LNCAP cells
# Format: functional
# experimental-setup: read-out: ED50 (the source's name)
property-measured: EC50

C=C1CC[C@@H]2[C@H]([C@H]3[C@@H](C)CC[C@@H]13)C2(C)C :: > 20 µg/mL
C=C(C)[C@@H]1CC[C@]2(C)[C@H](CC=C3[C@@H]4C[C@@](C)(C(=O)O)CC[C@]4(C)CC[C@]32C)[C@@]1(C)CCC(=O)O :: > 20 µg/mL
CC1(C)[C@H](O)CC[C@]2(C)[C@H]3CC=C4[C@@H]5C[C@](C)(C(=O)O)CC[C@]5(C)CC[C@@]4(C)[C@]3(C)CC[C@@H]12 :: 10 µg/mL
C=C1CC[C@@H]2[C@H]([C@H]3[C@H]1CC[C@]3(C)O)C2(C)C :: > 20 µg/mL
CC1(C)C(=O)CC[C@]2(C)[C@H]3CC=C4[C@@H]5C[C@](C)(C(=O)O)CC[C@]5(C)CC[C@@]4(C)[C@]3(C)CC[C@@H]12 :: 10 µg/mL

In the following, a different compound is considered.
Request the reported EC50 associated with C=C1CC[C@@H]2O[C@]2(C)CC[C@@H]2[C@@H]1CC2(C)C
> 20 µg/mL
